Attribution: the supplement of paper PMC13380429

# inhibition of SARS-CoV-2 cytopathic effect annotations
Tested on: Vero E6 infected with SARS-CoV-2
Assay: inhibition of SARS-CoV-2 cytopathic effect; higher = more antiviral protection, active = above 15
Details: 8.33 nM; 48 h
Number only, in %; omit the unit.

Past entries and their recorded results:
[
  {
    "compound": "CNCCCC1(c2ccccc2)OC(C)(C)c2ccccc21 (centres undefined)",
    "experimental result": -1.8
  },
  {
    "compound": "CC(C)[C@@H](C)/C=C/[C@@H](C)[C@H]1CC[C@H]2/C(=C/C=C3\\C[C@@H](O)CC[C@@H]3C)CCC[C@]12C [dihydrotachysterol]",
    "experimental result": 0.52
  },
  {
    "compound": "C[C@]12CCC(=O)C=C1CC[C@@H]1[C@@H]2[C@@H](O)C[C@@]2(C)[C@H]1CC[C@]2(O)C(=O)COP(=O)(O)O [hydrocortisone-phosphate]",
    "experimental result": 3.34
  }
]

// below: inhibition of SARS-CoV-2 cytopathic effect requested for another compound
[ask] Please give the documented inhibition of SARS-CoV-2 cytopathic effect of C[C@H]1CC[C@H](n2c3cnccc3c3cnc(Nc4ccc5c(n4)CCN(C(=O)CO)C5)nc32)CC1
[reply] -0.1

###

System: Vero E6 infected with SARS-CoV-2
Assay: SARS-CoV-2 infection rate relative to infected DMSO; higher = more infection, active = 60 or less
Conditions: 24 h
endpoint name: SARS-CoV-2 infection rate

[
  {
    "compound": "O=C1Nc2ccc(Cl)c3c2C1(CCCCN1CC=C(c2ccc(Cl)cc2)CC1)CCC3 (stereo not given) (0.833333 µM)",
    "SARS-CoV-2 infection rate": "106% (inactive)"
  }
]

[ask] Please give the documented SARS-CoV-2 infection rate of C=CCN1CC[C@]23c4c5ccc(O)c4O[C@H]2/C(=N/NC(=O)c2ccccc2)CC[C@@]3(O)[C@H]1C5 [naloxone-benzoylhydrazone] (10 µM)
[reply] 110% (inactive)

[ask] Please give the documented SARS-CoV-2 infection rate of COc1cc2c(cc1OCCCN1CCCC1)N=C(N)C21CCC1 (10 µM)
[reply] 106% (inactive)

[ask] Please give the documented SARS-CoV-2 infection rate of CN(c1ccc(NC(=O)Nc2ccccc2)cc1)S(=O)(=O)c1cnn(-c2ccc(F)cc2)c1 (10 µM)
[reply] 83.5% (inactive)

[ask] Please give the documented SARS-CoV-2 infection rate of COC(F)(F)C(Cl)Cl [methoxyflurane] (10 µM)
[reply] 100% (inactive)

###

# inhibition of SARS-CoV-2 cytopathic effect annotations
Test system: Vero E6 infected with SARS-CoV-2
Assay: inhibition of SARS-CoV-2 cytopathic effect; higher = more antiviral protection, active = above 15
Conditions: 1 nM; 48 h
Number only, in %; omit the unit.

Past entries and their recorded results:
[
  {
    "compound": "NC(=O)N1c2ccccc2CC(=O)c2ccccc21 [oxcarbazepine]",
    "measurement units": "%",
    "experimental result": 0.74
  },
  {
    "compound": "C[C@H](N[C@@H](CCc1ccccc1)C(=O)O)C(=O)N1CCC[C@H]1C(=O)O [enalaprilat]",
    "measurement units": "%",
    "experimental result": -0.58
  }
]

// below: inhibition of SARS-CoV-2 cytopathic effect requested for another compound
[ask] Tell me its inhibition of SARS-CoV-2 cytopathic effect on Vero E6 infected with SARS-CoV-2: Cc1c(S(=O)(=O)O)oc2c1C(=O)C(=O)c1c-2ccc2c1CCCC2(C)C [sodium-tanshinone-II-A-sulfonate]
[reply] -6.63
